All values here come from patent EP4725957A1.

System: Escherichia coli ATCC BAA-2523
Assay type: cell-based
ASSAY_CONTEXT: ATCC BAA-2523
Method: The minimal inhibitory concentration (MIC) was determined by the broth microdilution method according to the recommended procedures of the Clinical and Laboratory Standards Institute (CLSI). An appropriate amount of the cyclic lipopeptide compounds prepared in Examples 1-120 and the reference standards were weighed and dissolved in sterile pure water. […]
Bridge positions count the residues as written; N and C are the ends. Square brackets hold non-standard residues; d marks the D form. Peptide text beside a SMILES is read from it. * marks the point of attachment. Nonanoyl = CCCCCCCCC(=O)*; dDab = NCC[C@@H](N)C(=O)O; Octanoyl = CCCCCCCC(=O)*; Dab = NCC[C@H](N)C(=O)O; Dap = NC[C@H](N)C(=O)O
PROPERTY_NAME: MIC

- CCCCCCCC(=O)N[C@@H](CCN)C(=O)N[C@H](C(=O)N[C@H](CO)C(=O)N[C@H]1CCNC(=O)[C@H]([C@@H](C)O)NC(=O)[C@H](CN)NC(=O)[C@H](CCN)NC(=O)[C@H]([C@@H](C)O)NC(=O)[C@@H](Cc2ccccc2)NC(=O)[C@H](CCN)NC1=O)[C@@H](C)O [Compound 83] (Octanoyl-[Dab]T[dS][Dab][Dab][dF]T[Dab][Dap]T; lactam 4-C): 0.06 µg/mL
- CCCCCCCC(=O)N[C@@H](CN)C(=O)N[C@H](C(=O)N[C@H](CCN)C(=O)N[C@H]1CCNC(=O)[C@H]([C@@H](C)O)NC(=O)[C@H](CCN)NC(=O)[C@H](CCN)NC(=O)[C@H](CC(C)C)NC(=O)[C@@H](CC(C)C)NC(=O)[C@H](CCN)NC1=O)[C@@H](C)O [Compound 98] (Octanoyl-[Dap]T[dDab][Dab][Dab][dL]L[Dab][Dab]T; lactam 4-C): 0.03 µg/mL
- CCCCCCCCC(=O)N[C@@H](CN)C(=O)N[C@H](C(=O)N[C@H](CO)C(=O)N[C@H]1CCNC(=O)[C@H]([C@@H](C)O)NC(=O)[C@H](CCN)NC(=O)[C@H](CCN)NC(=O)[C@H]([C@@H](C)O)NC(=O)[C@@H](Cc2ccccc2)NC(=O)[C@H](CCN)NC1=O)[C@@H](C)O [Compound 55] (Nonanoyl-[Dap]T[dS][Dab][Dab][dF]T[Dab][Dab]T; lactam 4-C): 0.03 µg/mL
